Provide the recorded Kd for the entries that follow.
- test.system: T1, recombinant human TIGIT (human, UniProt Q495A1 22-141, limits assumed)
- T1 construct: recombinant human TIGIT used in Carterra SPR; also called hTIGIT
- T1 sequence (looked up): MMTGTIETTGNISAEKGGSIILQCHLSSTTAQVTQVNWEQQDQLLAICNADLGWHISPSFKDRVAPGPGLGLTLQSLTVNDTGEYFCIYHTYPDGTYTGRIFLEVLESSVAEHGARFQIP
- assay.summary: SPR Carterra, average
Answers are plain numbers, in nM.

1. TIGIT-SC33 (Fc fusion, VHH-Fc fusion in assay) VHH: EVQLVESGGGLVQPGGSLRLSCAASGFLFDSYAMGWFRQAPGKEREFVAAVSQSGLLTFYADSVKGRFTISADNSKNTAYLQMNSLKPEDTAVYYCASRTSSWWWFDPWGQGTLVTVSS | 6.72

Prompt: # Kd lookup, item TIGIT-SC110 (Fc fusion, VHH-Fc fusion in assay) VHH: EVQLVESGGGLVQPGGSLRLSCAASGNTFSGGFMGWFRQAPGKEREWVASVLRGGYTWYADSVKGRFTISADNSKNTAYLQMNSLKPEDTAVYYCARDHTAMVAPFDYWGQGTLVTVSS
Completion: 1.44
